Test: Plasma stability assay
Type: in vitro ADME
Conditions: human, plasma; after incubation at 37°C for 120 min; read-out: % remained in human plasma
MEASURED PROPERTY: remaining at 2 h

Enquiry: Fill in the blank: the reported remaining at 2 h of CC(C)C[C@H](NC(=O)[C@H](Cc1ccccc1)NC(=O)CNC(=O)CNC(=O)[C@H](Cc1ccc(O)cc1)NC(=O)CCC(=O)N[C@@H]1O[C@H](CO)[C@@H](O[C@@H]2O[C@H](CO)[C@H](O[C@H]3O[C@H](CO)[C@H](O)[C@H](O)[C@H]3O)[C@H](O)[C@H]2O)[C@H](O)[C@H]1O)C(N)=O is ____.
Return: ~100%
